System: KASUMI-10;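 further: ALL cell lines in 384-well plates, five doses spanning 10,000-fold, each plate scaled between vehicle and 100 µmol/L benzalkonium chloride controls, sDSS an adapted area-under-curve metric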
experiment.notes: selective drug sensitivity score (sDSS, relative to normal bone marrow) (sDSS (score)); higher = more potent and effective on the cell line relative to normal bone marrow cells
assay.conditions: 72 h
Please enter Met where selective drug sensitivity score is greater than or equal to 1, and Not met where it is lower.

# molecule, label
rows = [
    ("CCOC(=O)C1=CCCC[C@H]1S(=O)(=O)Nc1ccc(F)cc1Cl [Resatorvid] (top concentration 10000 nM)", "Not met"),
    ("Cc1ccc(C(=O)N(CCCN)[C@@H](c2oc3cc(Cl)ccc3c(=O)c2Cc2ccccc2)C(C)C)cc1 (top concentration 100 nM)", "Met"),
    ("C=C1C[C@@H]2CC[C@@]34C[C@H]5O[C@H]6[C@@H](O3)[C@H]3O[C@H](CC[C@@H]3O[C@H]6[C@H]5O4)CC(=O)C[C@@H]3[C@@H](OC)[C@@H](C[C@H](O)CN)O[C@H]3C[C@H]3O[C@@H](CC[C@@H]1O2)C[C@@H](C)C3=C [Eribulin] (top concentration 1000 nM)", "Met"),
    ("Cc1c(C(=O)Nc2ccc(N3C[C@@H](C)O[C@@H](C)C3)nc2)cccc1-c1ccc(OC(F)(F)F)cc1 [Sonidegib] (top concentration 10000 nM)", "Met"),
    ("NC[C@@](O)(c1ccc(Cl)cc1)c1ccc(-c2cn[nH]c2)cc1 (top concentration 10000 nM)", "Not met"),
]

src = the supplement of paper PMC8967900
